# hERG current change (%, negative = inhibition) at 1uM annotations
- tested on: human ether-à-go-go-related gene (hERG) potassium channel (human, UniProt Q12809)
- Sequence (Q12809 whole entry, looked up): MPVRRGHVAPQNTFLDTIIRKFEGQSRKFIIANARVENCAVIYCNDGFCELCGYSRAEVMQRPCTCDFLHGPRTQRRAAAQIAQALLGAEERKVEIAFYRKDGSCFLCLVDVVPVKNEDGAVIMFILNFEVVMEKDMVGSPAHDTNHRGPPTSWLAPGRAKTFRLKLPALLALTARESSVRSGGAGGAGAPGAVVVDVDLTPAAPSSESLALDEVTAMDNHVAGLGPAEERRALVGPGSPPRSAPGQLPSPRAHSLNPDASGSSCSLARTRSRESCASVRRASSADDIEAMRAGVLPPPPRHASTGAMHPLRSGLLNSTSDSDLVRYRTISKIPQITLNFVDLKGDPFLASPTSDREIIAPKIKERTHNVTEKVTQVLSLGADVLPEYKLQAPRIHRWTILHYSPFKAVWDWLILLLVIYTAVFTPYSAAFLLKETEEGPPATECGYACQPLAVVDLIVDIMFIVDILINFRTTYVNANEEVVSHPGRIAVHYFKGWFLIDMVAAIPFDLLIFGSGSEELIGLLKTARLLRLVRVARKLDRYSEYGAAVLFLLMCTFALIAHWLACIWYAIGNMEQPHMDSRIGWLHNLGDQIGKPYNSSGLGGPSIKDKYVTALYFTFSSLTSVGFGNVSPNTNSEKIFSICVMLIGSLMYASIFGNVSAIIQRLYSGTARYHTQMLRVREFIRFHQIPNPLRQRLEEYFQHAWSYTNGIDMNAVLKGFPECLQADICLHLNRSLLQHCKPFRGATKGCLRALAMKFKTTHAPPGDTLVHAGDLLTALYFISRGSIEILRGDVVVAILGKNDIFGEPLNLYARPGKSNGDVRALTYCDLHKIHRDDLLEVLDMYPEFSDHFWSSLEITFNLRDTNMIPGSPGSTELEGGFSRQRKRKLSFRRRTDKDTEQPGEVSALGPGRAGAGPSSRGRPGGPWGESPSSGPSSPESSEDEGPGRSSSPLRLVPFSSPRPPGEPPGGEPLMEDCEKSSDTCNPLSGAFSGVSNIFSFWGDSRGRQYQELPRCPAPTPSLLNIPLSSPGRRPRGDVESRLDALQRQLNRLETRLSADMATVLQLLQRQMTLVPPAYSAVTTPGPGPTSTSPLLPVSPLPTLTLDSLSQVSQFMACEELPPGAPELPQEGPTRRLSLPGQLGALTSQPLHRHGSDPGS
- method summary: primary screen, population patch clamp on CHO cells stably expressing hERG; higher = less effect of the substance
Screen size: about 310,000 compounds; about 2,200 (0.71%) showed an effect of 50% or more. Effects have a minus sign here. For the sample, strong results were picked, then their nearest neighbours and some compounds at random.
Please state the figure in %; there is no need to write the unit.

Illustrative cases are given below, each with its answer.
Query string: Which hERG current change (%, negative = inhibition) at 1uM value belongs to COc1ccc(-c2[nH]ncc2CN(C)C(C)c2ccncn2)c(F)c1 (stereo not drawn) ?
Result string: 1.94

Query string: Which hERG current change (%, negative = inhibition) at 1uM value belongs to O=C(Cc1cccc(NC(=O)C2CCCN(C(=O)C3CCC3)C2)c1)Nc1cccc(C(=O)N2CCCC2)c1 (stereo not drawn) ?
Result string: 9.32

Query string: Which hERG current change (%, negative = inhibition) at 1uM value belongs to CCN(CC)CCn1c(NC(=O)c2ccc(Cl)cc2)nc2ccccc21 ?
Result string: -0.305

Query string: Which hERG current change (%, negative = inhibition) at 1uM value belongs to CC(C)(C)C(=O)Nc1scc(-c2ccc(-c3ccccc3)cc2)c1C(=O)O ?
Result string: 21.8

Query string: Which hERG current change (%, negative = inhibition) at 1uM value belongs to Cc1cc(OCCN2CCCC2)ccc1[N+](=O)[O-].O=C(O)C(=O)O ?
Result string: 7.94

Query string: Which hERG current change (%, negative = inhibition) at 1uM value belongs to NC(=O)NCc1ccc(F)cc1 ?
Result string: 4.8

More entries:
Query string: Which hERG current change (%, negative = inhibition) at 1uM value belongs to O=C(O)C(=O)O.O=[N+]([O-])c1cccc(OCCCN2CCC(Cc3ccccc3)CC2)c1 ?
Result string: -82.9

Query string: Which hERG current change (%, negative = inhibition) at 1uM value belongs to CCN(CC)CCn1c(NS(=O)(=O)c2ccc(Cl)cc2)nc2ccccc21.Cl ?
Result string: -69

Query string: Which hERG current change (%, negative = inhibition) at 1uM value belongs to CSc1ccc(C(=O)C2CCCN(Cc3cnc(SC)nc3)C2)cc1 (stereo not drawn) ?
Result string: -33.7

Query string: Which hERG current change (%, negative = inhibition) at 1uM value belongs to Cc1ccc(CN2C3=NCCN3c3ccccc32)cc1.Cl ?
Result string: -23.5

Query string: Which hERG current change (%, negative = inhibition) at 1uM value belongs to Cl.Clc1ccc(CN2C3=NCCCN3c3ccccc32)c(Cl)c1 ?
Result string: -28.2

---

- tested on: human ether-à-go-go-related gene (hERG) potassium channel (human)
- method summary: primary screen, population patch clamp on CHO cells stably expressing hERG; higher = less effect of the substance
In all, about 310,000 compounds went through this assay and about 2,200 (0.71%) showed an effect of 50% or more. The effect is printed as a negative number. This excerpt belongs to a sample that is enriched for strong results.
# hERG current change (%, negative = inhibition) at 1uM annotations
Please state the figure in %; there is no need to write the unit.

Query string: Which hERG current change (%, negative = inhibition) at 1uM value belongs to O=C(NCC1(O)CCCCC1)C1CCC(=O)N(Cc2ccccc2F)C1 (stereo not shown) ?
Result string: 15.8

Query string: Which hERG current change (%, negative = inhibition) at 1uM value belongs to CCCN(CCC)CC(O)COc1ccccc1C(=O)Nc1ccccc1.Cl (stereo not shown) ?
Result string: -35.8

Query string: Which hERG current change (%, negative = inhibition) at 1uM value belongs to Cc1ccc(OCC(O)CN2CCc3ccccc3C2)c(C)c1.Cl (stereo not shown) ?
Result string: -42.6

Query string: Which hERG current change (%, negative = inhibition) at 1uM value belongs to O=C(CCCC(=O)OCC(=O)c1ccc(F)cc1)Nc1cc(C(F)(F)F)ccc1Cl ?
Result string: 12

More entries:
Query string: Which hERG current change (%, negative = inhibition) at 1uM value belongs to Cl.OC(COc1ccc(Br)cc1)CN1CCCC1 (stereo not shown) ?
Result string: 5.23

Query string: Which hERG current change (%, negative = inhibition) at 1uM value belongs to COc1ccccc1C(=O)NC1CCN(C(=O)Nc2ccc(C)cc2)CC1 ?
Result string: 10.5

Query string: Which hERG current change (%, negative = inhibition) at 1uM value belongs to COc1cccc(OCC(O)CN2CCC(C)CC2)c1.Cl (stereo not shown) ?
Result string: 3.42

Query string: Which hERG current change (%, negative = inhibition) at 1uM value belongs to COc1cc2c(cc1OC)C(COc1cc(C)cc(C)c1)N(C(C)=O)CC2 (stereo not shown) ?
Result string: 2.4

Query string: Which hERG current change (%, negative = inhibition) at 1uM value belongs to O=c1c2ccccc2cnn1Cc1nnc(-c2cccs2)o1 ?
Result string: 13.7

Query string: Which hERG current change (%, negative = inhibition) at 1uM value belongs to COc1cccc(OCC(O)CN2CCC(Cc3ccccc3)CC2)c1.Cl (stereo not shown) ?
Result string: -55.6

Query string: Which hERG current change (%, negative = inhibition) at 1uM value belongs to Cl.OC(COc1ccc(Br)cc1)CN1CCC(Cc2ccccc2)CC1 (stereo not shown) ?
Result string: -83.7

Origin of values: paper PMC4336329
